Protein target, amino acids: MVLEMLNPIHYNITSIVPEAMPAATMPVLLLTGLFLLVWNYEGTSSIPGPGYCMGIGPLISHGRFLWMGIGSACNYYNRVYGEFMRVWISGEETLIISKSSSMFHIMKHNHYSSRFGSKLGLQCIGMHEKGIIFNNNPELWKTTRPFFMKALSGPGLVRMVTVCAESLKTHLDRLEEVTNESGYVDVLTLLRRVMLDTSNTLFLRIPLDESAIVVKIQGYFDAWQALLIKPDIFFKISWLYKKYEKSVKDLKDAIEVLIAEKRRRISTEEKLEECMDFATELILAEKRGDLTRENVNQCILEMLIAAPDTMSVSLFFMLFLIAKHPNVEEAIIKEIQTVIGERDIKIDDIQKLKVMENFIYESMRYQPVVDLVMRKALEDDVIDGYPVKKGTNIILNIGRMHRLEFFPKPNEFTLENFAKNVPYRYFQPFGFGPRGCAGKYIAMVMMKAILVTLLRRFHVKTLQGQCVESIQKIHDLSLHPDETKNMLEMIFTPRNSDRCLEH
pIC50: −log10 of the molar value.
Mark false for pIC50 values under 5, and true for everything at or above.

[[record]]
compound_smiles = "CCCCCCc1cn(Cc2ccc(C#N)cc2)nn1"
assigned_category = "true"

[[record]]
compound_smiles = "c1ccc(Cn2nccn2)cc1"
assigned_category = "false"

[[record]]
compound_smiles = "Cc1ccc(OCc2cn(Cc3ccc(C#N)cc3)nn2)cc1"
assigned_category = "true"

